- Experimental Target: DLG4_3, P78352
- Sequence (P78352 306-403): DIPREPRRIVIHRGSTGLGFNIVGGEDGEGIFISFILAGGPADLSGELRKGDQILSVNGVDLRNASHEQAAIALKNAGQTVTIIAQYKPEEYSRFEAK
- Measurement Protocol: holdup assay
- Parameters: key: below the threshold = too weak to quantify, mostly under pKd 3.1 to 4
- Experimental Context: plain residues with an end cap or a label only (N-terminal biotin on a linker: ahx)
Readout Label: pKd

| Binder | pKd |
| --- | --- |
| LSDPSVSTVV [GRIN1, Q05586;Q05586-2] | below the threshold |
| RAVEEEESRF [PSCDBP, O60759] | below the threshold |
| GYDWGPATDL [TJP3, O95049] | below the threshold |
| ESLLLGPSNF [SHROOM4, Q9ULL8] | below the threshold |
| HNAFLSVTTV [PDZRN4, Q6ZMN7] | 3.56 |

Briefly, pKd measured for PSASCAVTAA [PDLIM4, P50479;P50479-2] : below the threshold
